- target_of_assay: T1, Siglec-7-Fc (plate immobilized) (human, UniProt Q9Y286 19-357, limits assumed)
- T1 construct: also called Siglec-7-Fc protein; immobilized Siglec-7; not shown: Fc part
- test_protocol: RBC solid adhesion assay, plate-coated Siglec-7-Fc, antibody 0.5 or 1.0 ug/ml; % of RBC binding without antibody
Parameter Percent RBC Binding to Siglec-7: see the listing below.
Supply the numeric figure in %, leaving out any unit text.

anti-Siglec-7 antibody 2G4 (antibody, V domains shown, Variable domains assembled from FR and CDR entries) VH: QVQLQQSGSELRSPGSSVKLSCKDFDSEVFPITYMNWVRQKPGHGFEWIGDILPSIGRTMYGEKFEDKATLDADTVSNTAYLELNSLTSEDSAIYYCARSEGYLLAYWGQGTLVTVSA VL: DIQMTQSLSYLSVSLGGRVTITCKASDHINNWLAWYQQKPGNAPRLLISGATSLETGFPSRFSGSGSGKDYTLSITSLQTEDVATYYCHQYWNTPYTFGGGTRLEIK :: 11.6

For reference, reported Percent RBC Binding to Siglec-7 for anti-Siglec-7 antibody 1E8 (antibody, V domains shown) VH: QVQLQQSGAELVRPGASVKLSCSASGFNIKGSLLHWIKQRPLQGLEWIGWIDPEDGETRFDPKFQDKAFLTADTSSTTAYLQLSSLTSEDTAIYYCARTEYSNPAWFAYWGQGTLVTVSA VL: DIQMTQFPATLSVTPGDRVSLSCRASQSISDYLHWYQHKSHESPRLLIKYASQSISGIPSRFSGSGSGWDFTLSINSVEPEDVGIYYCQKGLNFPLTFGGGTKLEMK stands at 16.4
